Biological target: BTK (Homo sapiens, UniProt Q06187)
Construct: High control=Cell group with added DMSO and without compound, indicating microplate readings without BTK degradation; endogenous in cells; host or cells: TMD-8 cells
Sequence (Q06187 whole entry): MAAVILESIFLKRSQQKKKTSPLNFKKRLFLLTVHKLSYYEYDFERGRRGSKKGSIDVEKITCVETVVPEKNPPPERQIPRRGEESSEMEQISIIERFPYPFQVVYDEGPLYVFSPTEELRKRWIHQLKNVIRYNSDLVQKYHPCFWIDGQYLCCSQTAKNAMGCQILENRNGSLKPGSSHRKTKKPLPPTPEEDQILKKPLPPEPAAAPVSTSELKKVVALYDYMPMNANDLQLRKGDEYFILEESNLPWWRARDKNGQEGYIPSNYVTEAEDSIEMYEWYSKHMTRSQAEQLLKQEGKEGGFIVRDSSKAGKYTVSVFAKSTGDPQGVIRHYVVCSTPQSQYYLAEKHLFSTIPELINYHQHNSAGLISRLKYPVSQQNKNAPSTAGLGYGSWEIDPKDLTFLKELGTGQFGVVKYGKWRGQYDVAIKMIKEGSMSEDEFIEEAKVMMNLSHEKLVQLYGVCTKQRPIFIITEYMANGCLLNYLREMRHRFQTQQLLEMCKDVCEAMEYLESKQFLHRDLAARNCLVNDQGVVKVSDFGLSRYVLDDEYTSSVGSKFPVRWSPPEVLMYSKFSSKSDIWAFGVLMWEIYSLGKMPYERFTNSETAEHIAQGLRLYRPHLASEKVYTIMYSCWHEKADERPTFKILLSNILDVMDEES
Assay: Cell Degradation: BTK degradation in TMD-8 cells, HTRF assay
Assay type: cell-based
Conditions: 6 h treatment, IC50 (DC50) of BTK degradation
Procedure: TMD-8 cells are treated with compounds in 0.2% DMSO, dilution is done according to the following protocol: (1) make 500× stock solution in DMSO from 1 mM by 6-fold dilution, total 8 doses were included; (2) make 2× solution in cell culture medium by transferring 0.5 μl 500× stock solution into 125 μl medium; (3) 15 μl of 2× solution is added to cells and incubate for 6 h. […]
test_readout: DC50 (nM)
Write it as a number; the unit nM goes unstated.

Consider the worked cases shown below.
COc1ccc(C(=O)N2CCC(CN3CCC(Oc4ccc(-c5cc6c(-c7ccc(CNC(=O)c8nc(C(C)(C)C)no8)c(C)c7)ncnc6[nH]5)cc4)CC3)CC2)cc1N1CCC(=O)NC1=O [Example 27]    1.9
Cc1cc(-c2ncnc3[nH]c(-c4ccc(C5CCN(CCC6CCN(c7ccc(N8CCC(=O)NC8=O)c(Cl)c7)CC6)CC5)cc4)cc23)ccc1CNC(=O)c1nc(C(C)(C)C)no1 [Example 24]    4.8
C=C(C)c1ccc(C(=O)Nc2cc(F)cc(-c3ncnc4[nH]c(-c5ccc(C6CCN(CC7CCN(c8ccc(N9CCC(=O)NC9=O)cc8)CC7)CC6)cc5)cc34)c2C)c(F)c1 [Example 29]    10.2
Cc1cc(-c2ncnc3[nH]c(-c4ccc(N5CCN(CC6CCN(c7ccc(N8CCC(=O)NC8=O)cc7)CC6)CC5)cc4)cc23)c(F)cc1[C@@H](C)NC(=O)c1noc(C(C)(C)C)n1 [Example 107]    1.7

# evaluate next
I'd like to know its DC50. The molecule in question is Cc1cc(-c2ncnc3[nH]c(-c4ccc(N5CCN(CC6CCN(c7ccc(N8CCC(=O)NC8=O)cc7)CC6)CC5)nc4)cc23)ccc1[C@@H](C)NC(=O)c1nc(C2(C)CC2)no1 [Example 166]
1.61
